Readings of IC50 for the listed molecules
tested.target: integrin α4β1 (Homo sapiens, UniProt P05556+P13612)
Construct: Jurkat cells were collected, washed twice using DPBS buffer; endogenous in cells
Sequence (P13612 34-1032): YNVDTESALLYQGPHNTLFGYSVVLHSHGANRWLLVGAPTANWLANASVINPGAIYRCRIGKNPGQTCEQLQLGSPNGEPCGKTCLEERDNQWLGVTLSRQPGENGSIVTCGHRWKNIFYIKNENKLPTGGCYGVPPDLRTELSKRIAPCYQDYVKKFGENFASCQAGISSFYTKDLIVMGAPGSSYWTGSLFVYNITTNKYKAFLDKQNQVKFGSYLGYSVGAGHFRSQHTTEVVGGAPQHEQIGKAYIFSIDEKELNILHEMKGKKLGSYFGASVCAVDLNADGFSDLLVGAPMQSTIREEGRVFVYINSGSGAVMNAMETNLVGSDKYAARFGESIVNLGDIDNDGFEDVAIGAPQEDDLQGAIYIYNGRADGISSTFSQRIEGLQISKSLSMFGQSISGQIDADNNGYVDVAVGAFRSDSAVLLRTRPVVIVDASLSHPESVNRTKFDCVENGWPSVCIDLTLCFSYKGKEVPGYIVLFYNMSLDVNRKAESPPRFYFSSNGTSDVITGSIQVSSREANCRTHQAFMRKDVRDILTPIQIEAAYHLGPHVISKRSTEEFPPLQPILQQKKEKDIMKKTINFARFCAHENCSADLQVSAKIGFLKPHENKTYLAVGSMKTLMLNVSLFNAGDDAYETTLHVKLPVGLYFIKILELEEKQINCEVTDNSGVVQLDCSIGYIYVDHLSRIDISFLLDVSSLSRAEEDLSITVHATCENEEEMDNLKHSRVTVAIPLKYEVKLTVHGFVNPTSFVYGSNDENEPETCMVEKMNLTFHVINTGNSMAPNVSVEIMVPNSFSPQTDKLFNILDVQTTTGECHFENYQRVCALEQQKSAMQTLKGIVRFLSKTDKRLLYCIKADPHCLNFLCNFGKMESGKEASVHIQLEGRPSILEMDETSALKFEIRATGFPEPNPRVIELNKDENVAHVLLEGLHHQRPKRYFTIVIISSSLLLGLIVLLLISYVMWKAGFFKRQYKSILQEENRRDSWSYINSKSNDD
Sequence (P05556 21-798): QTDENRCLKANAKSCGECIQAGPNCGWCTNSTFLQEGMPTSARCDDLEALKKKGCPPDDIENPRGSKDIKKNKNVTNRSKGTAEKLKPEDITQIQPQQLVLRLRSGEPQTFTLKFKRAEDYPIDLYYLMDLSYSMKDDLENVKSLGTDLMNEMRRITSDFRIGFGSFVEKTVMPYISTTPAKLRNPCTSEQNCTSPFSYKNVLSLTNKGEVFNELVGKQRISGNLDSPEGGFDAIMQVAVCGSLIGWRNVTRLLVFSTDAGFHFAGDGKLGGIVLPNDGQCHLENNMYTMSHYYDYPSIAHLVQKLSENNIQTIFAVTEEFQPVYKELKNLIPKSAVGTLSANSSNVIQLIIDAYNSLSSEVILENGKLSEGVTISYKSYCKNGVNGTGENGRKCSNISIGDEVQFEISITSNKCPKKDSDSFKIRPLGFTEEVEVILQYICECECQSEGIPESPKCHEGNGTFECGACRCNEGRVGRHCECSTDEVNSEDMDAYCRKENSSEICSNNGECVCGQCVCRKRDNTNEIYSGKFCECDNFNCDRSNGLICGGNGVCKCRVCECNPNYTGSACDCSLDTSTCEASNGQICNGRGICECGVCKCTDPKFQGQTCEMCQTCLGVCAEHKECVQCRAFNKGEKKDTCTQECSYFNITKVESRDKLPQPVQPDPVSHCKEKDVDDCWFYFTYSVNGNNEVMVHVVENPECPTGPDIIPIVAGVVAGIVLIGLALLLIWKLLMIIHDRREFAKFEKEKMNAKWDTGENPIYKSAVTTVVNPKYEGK
run.description: Integrin α4β1-mediated cell adhesion assay (Jurkat cells on VCAM)
settings: Jurkat cells adhering to VCAM-1; α4β1-mediated cell adhesion
Protocol: VCAM was formulated into a final concentration of […] with a coating buffer, 50 μl of the solution was transferred to a 96-well plate, and the plate was coated with same at 4° C. overnight. The plate was washed with coating buffer three times, then 150 μl of a blocking solution (coating buffer containing 1% BSA) was added, and the plate was blocked at 37° C. for 1 h. Jurkat cells were collected, washed twice using DPBS buffer, and then resuspended to 4×10^6 cells/ml with an action buffer. […]
Structures can show the parent of a compound that is named as a salt.

In the examples that follow, each entry is paired with its recorded IC50.
- molecule: "COc1cc(C)c(-c2c(F)c(C(CC(=O)O)NC(=O)C(CC(C)C)n3cc(CCN(C)C)c(C(F)(F)F)cc3=O)c(F)c3c2CCC3)c(C)c1 (stereo not drawn) [Compound 21-A]"
  IC50: "> 100 nM"
- molecule: "Cc1ccc2[nH]ncc2c1-c1c(F)c(C(CC(=O)O)NC(=O)[C@H](CC(C)C)n2cc(CCN(C)C)c(C(F)(F)F)cc2=O)c(F)c2c1CCC2 (stereo partly drawn)"
  IC50: "> 100 nM"

Now take the following molecule into account.
Exercise: Looking for the measured IC50 of Cc1cc(F)cc(C)c1-c1c(F)c(C(CC(=O)O)NC(=O)C(CC(C)C)n2cc(CCC3CCN(C)C3)c(C(F)(F)F)cc2=O)c(F)c2c1CCC2 (stereo not drawn) [Trifluoroacetate salt of compound 26-2] , can you help?
Key: > 100 nM
